Recorded values, source patent US20170240513A1.

human HIF-PHD2 (Homo sapiens, UniProt Q9GZT9): reported IC50 for various compounds.
Sequence (Q9GZT9 whole entry): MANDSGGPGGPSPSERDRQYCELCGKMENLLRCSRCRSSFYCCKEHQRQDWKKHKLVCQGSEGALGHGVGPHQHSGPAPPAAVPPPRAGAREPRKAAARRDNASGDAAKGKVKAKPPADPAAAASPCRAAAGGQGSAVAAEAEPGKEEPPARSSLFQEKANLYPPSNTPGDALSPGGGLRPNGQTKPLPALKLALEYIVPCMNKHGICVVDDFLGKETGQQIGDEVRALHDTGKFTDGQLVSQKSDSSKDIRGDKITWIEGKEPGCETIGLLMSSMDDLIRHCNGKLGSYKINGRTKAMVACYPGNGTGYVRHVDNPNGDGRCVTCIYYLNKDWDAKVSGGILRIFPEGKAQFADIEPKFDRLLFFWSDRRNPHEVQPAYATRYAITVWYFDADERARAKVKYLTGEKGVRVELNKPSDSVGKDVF
metric_name: IC50 (nM)

{"compound": "CN(C)C(=O)COC(=O)CNC(=O)c1ncc(C(=O)NC(c2ccccc2)c2ccccc2)c(O)n1", "metric_name": "IC50", "numeric_result": 105}
{"compound": "CCOC(=O)OCOC(=O)CCNC(=O)c1ncc(C(=O)NC(c2ccccc2)c2ccccc2)c(O)n1", "metric_name": "IC50", "numeric_result": 2.46}
{"compound": "CC(C)OC(=O)OC(C)OC(=O)CNC(=O)c1ncc(C(=O)NC(c2ccccc2)c2ccccc2)c(O)n1 (stereo not drawn)", "metric_name": "IC50", "numeric_result": 43.9}
{"compound": "CC(C)OC(=O)COC(=O)[C@H]1C[C@H](NC(=O)c2ncc(C(=O)NC(c3ccccc3)c3ccccc3)c(O)n2)C1", "metric_name": "IC50", "numeric_result": 171}
{"compound": "CC(C)C(=O)OCOC(=O)CNC(=O)c1ncc(C(=O)NC(c2ccccc2)c2ccccc2)c(O)n1", "metric_name": "IC50", "numeric_result": 35}
{"compound": "CCOC(=O)OCOC(=O)CNC(=O)c1ncc(C(=O)NC(c2ccccc2)c2ccccc2)c(O)n1", "metric_name": "IC50", "numeric_result": 14.7}
